target: wildtype LRRK2 (Homo sapiens, UniProt Q5S007); construct: expressed in transfected cells; host or cells: HEK293 (ATCC CRL-1573), transient transfection, mammalian expression vector with ubiquitin promoter; test: LRRK2 degradation assay, HiBit-tagged wildtype LRRK2 expressed from plasmid in HEK293 cells (Nano-Glo Dual-Luciferase); type: cell-based; settings: HiBit-tagged wildtype LRRK2 in HEK293 cells, 24 hours; read-out: **WT Dmax (%)
Sequence (Q5S007 whole entry): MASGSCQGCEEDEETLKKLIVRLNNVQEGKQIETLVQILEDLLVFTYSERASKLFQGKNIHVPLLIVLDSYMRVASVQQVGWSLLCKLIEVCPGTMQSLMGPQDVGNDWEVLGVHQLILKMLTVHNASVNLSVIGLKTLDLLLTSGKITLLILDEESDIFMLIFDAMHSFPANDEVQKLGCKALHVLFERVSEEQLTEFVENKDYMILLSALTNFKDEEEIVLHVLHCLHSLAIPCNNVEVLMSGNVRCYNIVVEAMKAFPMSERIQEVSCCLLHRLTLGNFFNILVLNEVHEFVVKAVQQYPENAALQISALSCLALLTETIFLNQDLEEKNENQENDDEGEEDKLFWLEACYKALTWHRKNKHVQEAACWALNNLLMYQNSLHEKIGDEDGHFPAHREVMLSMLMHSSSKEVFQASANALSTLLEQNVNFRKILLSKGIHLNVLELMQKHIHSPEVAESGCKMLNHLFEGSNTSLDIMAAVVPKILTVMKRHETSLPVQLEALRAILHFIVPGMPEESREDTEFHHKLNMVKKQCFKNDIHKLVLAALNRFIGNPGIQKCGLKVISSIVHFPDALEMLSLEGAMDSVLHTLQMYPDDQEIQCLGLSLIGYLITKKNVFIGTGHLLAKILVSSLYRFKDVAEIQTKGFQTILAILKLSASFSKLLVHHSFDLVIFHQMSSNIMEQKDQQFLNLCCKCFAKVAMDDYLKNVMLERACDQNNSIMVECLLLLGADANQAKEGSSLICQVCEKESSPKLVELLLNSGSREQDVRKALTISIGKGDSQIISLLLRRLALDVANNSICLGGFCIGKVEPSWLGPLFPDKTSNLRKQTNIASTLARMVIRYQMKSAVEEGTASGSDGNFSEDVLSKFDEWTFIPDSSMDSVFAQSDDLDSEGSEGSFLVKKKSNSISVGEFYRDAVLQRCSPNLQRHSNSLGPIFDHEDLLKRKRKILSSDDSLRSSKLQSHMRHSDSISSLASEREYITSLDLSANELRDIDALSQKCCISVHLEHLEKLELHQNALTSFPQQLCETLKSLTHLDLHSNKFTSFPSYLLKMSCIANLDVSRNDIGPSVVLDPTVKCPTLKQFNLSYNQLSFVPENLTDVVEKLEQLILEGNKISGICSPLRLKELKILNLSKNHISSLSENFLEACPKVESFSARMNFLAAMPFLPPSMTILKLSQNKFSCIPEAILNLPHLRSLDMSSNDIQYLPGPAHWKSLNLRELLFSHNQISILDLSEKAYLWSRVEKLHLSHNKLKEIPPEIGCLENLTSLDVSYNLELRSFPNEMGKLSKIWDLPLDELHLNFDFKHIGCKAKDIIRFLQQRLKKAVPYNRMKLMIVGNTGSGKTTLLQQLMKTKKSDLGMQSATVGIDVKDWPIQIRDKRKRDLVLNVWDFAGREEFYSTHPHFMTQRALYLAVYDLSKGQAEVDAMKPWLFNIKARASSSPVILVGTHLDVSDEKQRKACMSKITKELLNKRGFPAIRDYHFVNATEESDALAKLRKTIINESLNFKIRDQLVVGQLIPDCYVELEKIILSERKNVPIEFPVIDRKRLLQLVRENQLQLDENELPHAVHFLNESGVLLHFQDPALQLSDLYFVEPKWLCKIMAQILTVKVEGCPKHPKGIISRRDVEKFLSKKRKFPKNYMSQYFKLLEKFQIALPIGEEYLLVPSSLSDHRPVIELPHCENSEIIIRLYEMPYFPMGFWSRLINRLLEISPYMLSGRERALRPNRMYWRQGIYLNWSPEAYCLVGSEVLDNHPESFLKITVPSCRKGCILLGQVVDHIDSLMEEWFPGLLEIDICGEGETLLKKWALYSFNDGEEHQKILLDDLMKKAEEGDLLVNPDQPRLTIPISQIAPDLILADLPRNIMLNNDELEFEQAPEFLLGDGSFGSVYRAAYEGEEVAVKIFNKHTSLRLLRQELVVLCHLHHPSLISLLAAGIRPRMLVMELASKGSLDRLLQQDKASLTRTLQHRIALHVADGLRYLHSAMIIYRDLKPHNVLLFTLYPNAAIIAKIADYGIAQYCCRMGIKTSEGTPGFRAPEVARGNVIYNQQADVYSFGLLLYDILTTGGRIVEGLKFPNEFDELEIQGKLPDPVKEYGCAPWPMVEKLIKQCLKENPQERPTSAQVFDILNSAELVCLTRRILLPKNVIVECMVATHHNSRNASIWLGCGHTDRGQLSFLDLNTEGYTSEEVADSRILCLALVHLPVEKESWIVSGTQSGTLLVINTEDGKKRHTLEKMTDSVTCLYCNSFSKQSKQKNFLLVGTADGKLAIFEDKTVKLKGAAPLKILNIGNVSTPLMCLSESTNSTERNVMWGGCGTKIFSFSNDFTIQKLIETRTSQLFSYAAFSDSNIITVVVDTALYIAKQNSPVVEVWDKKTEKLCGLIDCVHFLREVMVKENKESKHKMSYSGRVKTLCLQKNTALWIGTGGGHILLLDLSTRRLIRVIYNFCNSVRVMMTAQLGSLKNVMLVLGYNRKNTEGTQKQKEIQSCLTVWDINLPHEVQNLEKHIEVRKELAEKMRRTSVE

| COMPOUND | Dmax |
| --- | --- |
| CC1(Oc2ccc3[nH]nc(-c4cc(N5CCN(CCN6CCN(CC7CCN(c8ccc9c(c8)C(=O)N(C8CCC(=O)NC8=O)C9=O)CC7)CC6)CC5)ncn4)c3c2)CC1 (stereo not shown) [Compound 54] | ≥ 70% |
| C[C@H]1CN(c2cc(-c3n[nH]c4ccc(OC5(C)CC5)cc34)ncn2)CCN1CC1CCN(CC2CCN(c3cc4c(cc3F)C(=O)N(C3CCC(=O)NC3=O)C4=O)CC2)CC1 (stereo partly shown) [Compound 73] | < 50% |
| CC1(Oc2ccc3[nH]nc(-c4cc(N5C[C@@H]6[C@@H](CN7CCN(CC8CCN(c9ccc%10c(c9)C(=O)N(C9CCC(=O)NC9=O)C%10=O)CC8)CC7)[C@@H]6C5)ncn4)c3c2)CC1 (stereo partly shown) [Compound 75] | ≥ 70% |
| CC1(Oc2ccc3[nH]nc(-c4ccnc(N5CCC(C(=O)N6CCC(CN7CCN(c8ccc9c(c8)C(=O)N(C8CCC(=O)NC8=O)C9=O)CC7)CC6)CC5)c4)c3c2)CC1 (stereo not shown) [Compound 87] | < 50% |
| CC1(Oc2ccc3[nH]nc(-c4ccnc(N5CCOC6(CN(CC7CCN(CC8CCN(c9cccc%10c9C(=O)N(C9CCC(=O)NC9=O)C%10=O)CC8)CC7)C6)C5)c4)c3c2)CC1 (stereo not shown) [Compound 144] | 50 to 70% |
| CC1(Oc2ccc3[nH]nc(-c4cc(N5CCN(CC67CC(CN8CCN(c9ccc%10c(c9)C(=O)N(C9CCC(=O)NC9=O)C%10=O)CC8)(C6)C7)CC5)ncn4)c3c2)CC1 (stereo not shown) [Compound 124] | < 50% |
| CC1(Oc2ccc3n[nH]c(-c4cc(N5CCC(CN6CCC(CN7CCN(c8ccc9c(c8)C(=O)N(C8CCC(=O)NC8=O)C9=O)CC7)CC6)CC5)ncn4)c3c2)CC1 (stereo not shown) [Compound 67] | ≥ 70% |
| CC1(Oc2ccc3[nH]nc(-c4ccnc(N5CCN(CC6CCN(C(=O)C7CCN(c8ccc9c(c8)C(=O)N(C8CCC(=O)NC8=O)C9=O)CC7)CC6)CC5)c4)c3c2)CC1 (stereo not shown) [Compound 91] | 50 to 70% |
| CC1(Oc2ccc3[nH]nc(-c4cc(N5CCC(O[C@H]6CC[C@H](OC7CCN(c8ccc9c(c8)C(=O)N(C8CCC(=O)NC8=O)C9=O)CC7)CC6)CC5)ncn4)c3c2)CC1 (stereo partly shown) [Compound 108] | 50 to 70% |
| CC1(Oc2ccc3[nH]nc(-c4cc(N5CCN(C[C@@H]6CC(=O)N(CC7CCN(c8ccc9c(c8)C(=O)N(C8CCC(=O)NC8=O)C9=O)CC7)C6)CC5)ncn4)c3c2)CC1 (single isomer, unassigned) [Compound 121] | 50 to 70% |
